- System: Escherichia coli ATCC 25922
- test-name: ≥ marks a high value that may be exact or a test limit, other limits are often not marked, values filed in µg/mL are converted to µM
readout: MIC (µM)
Write it as a number; the unit µM goes unstated.

Write MIC of NC(=O)[C@H](CCCN=C(N)N)NC(=O)[C@H](CCCN=C(N)N)NC(=O)[C@H](Cc1c[nH]c2ccccc12)NC(=O)[C@H](Cc1c[nH]c2ccccc12)NC(=O)[C@H](CCCN=C(N)N)NC(=O)[C@H](Cc1c[nH]c2ccccc12)NC(=O)[C@H](Cc1c[nH]c2ccccc12)NC(=O)[C@H](CCCN=C(N)N)NC(=O)[C@H](Cc1c[nH]c2ccccc12)NC(=O)[C@H](CCCN=C(N)N)NC(=O)[C@H](CCCN=C(N)N)NC(=O)[C@H](CCCN=C(N)N)NC(=O)[C@@H](N)CCCN=C(N)N ; system used: Escherichia coli ATCC 25922
29.1

* * *

- Tested on: Staphylococcus aureus ATCC 25923
readout: MIC (µM)
Express the result in µM but write the number alone.

Observe how each entry below is paired with its result.
CC[C@H](C)[C@H](NC(=O)[C@H](Cc1c[nH]c2ccccc12)NC(=O)[C@H](CCCN=C(N)N)NC(=O)[C@H](CC(C)C)NC(=O)[C@@H](NC(=O)[C@H](CCCN=C(N)N)NC(=O)[C@H](CCCN=C(N)N)NC(=O)[C@H](C)NC(=O)[C@H](C)N)[C@@H](C)CC)C(=O)N[C@@H](Cc1ccccc1)C(=O)N[C@@H](CCCN=C(N)N)C(N)=O 8
CC[C@H](C)[C@H](NC(=O)[C@H](CCCN=C(N)N)NC(=O)[C@H](CCCN=C(N)N)NC(=O)[C@H](C)NC(=O)[C@@H](NC(=O)[C@H](C)NC(=O)[C@H](CC(C)C)NC(=O)[C@H](CC(C)C)NC(=O)[C@H](C)NC(=O)[C@H](CCCN=C(N)N)NC(=O)[C@H](CC(C)C)NC(=O)[C@H](CC(N)=O)NC(=O)[C@@H](N)CC(C)C)C(C)C)C(=O)N[C@@H](CC(C)C)C(N)=O 4
CC[C@H](C)[C@H](NC(=O)[C@H](CCCN=C(N)N)NC(=O)[C@H](CCCCN)NC(=O)[C@H](Cc1ccccc1)NC(=O)[C@H](Cc1ccccc1)NC(=O)CN)C(=O)N[C@@H](CCCN=C(N)N)C(=O)N[C@H](C(=O)N[C@@H](Cc1ccccc1)C(=O)N[C@@H](Cc1ccccc1)C(N)=O)[C@@H](C)O 16
CC(C)C[C@H](NC(=O)[C@@H](N)CCCN=C(N)N)C(=O)N[C@@H](Cc1c[nH]c2ccccc12)C(=O)N[C@@H](Cc1c[nH]c2ccccc12)C(=O)N[C@@H](Cc1c[nH]c2ccccc12)C(=O)N[C@@H](Cc1c[nH]c2ccccc12)C(=O)N[C@@H](CCCN=C(N)N)C(=O)N[C@@H](CCCN=C(N)N)C(=O)N[C@@H](CCCCN)C(=O)O 2.1

Moving on to another compound below.
Report MIC under test system Staphylococcus aureus ATCC 25923 for CC[C@H](C)[C@H](NC(=O)[C@H](CCCCN)NC(=O)[C@H](CCCCN)NC(=O)[C@H](C)NC(=O)[C@@H](NC(=O)[C@H](C)NC(=O)[C@H](C)NC(=O)[C@H](CC(C)C)NC(=O)[C@H](C)NC(=O)[C@H](CCCCN)NC(=O)[C@H](CC(C)C)NC(=O)[C@H](CC(N)=O)NC(=O)[C@@H](N)CC(C)C)C(C)C)C(=O)N[C@@H](CC(C)C)C(N)=O .
16

* * *

As a worked illustration, we turn to MIC data collected for Escherichia coli ATCC 25922.
Response body: numeric value in µM, unit text excluded.

// known answers, use as guide
compound	MIC [µM]
CC[C@H](C)[C@H](NC(=O)[C@H](CCCN=C(N)N)NC(=O)[C@H](CCCN=C(N)N)NC(=O)[C@H](CC(C)C)NC(=O)[C@H](Cc1c[nH]c2ccccc12)NC(=O)[C@H](CCCN=C(N)N)NC(=O)[C@@H](N)Cc1c[nH]c2ccccc12)C(=O)N[C@@H](Cc1c[nH]c2ccccc12)C(N)=O [WRWLRRIW]	25
CC(C)C[C@H](NC(=O)[C@H](CC(C)C)NC(=O)[C@H](CCCCN)NC(=O)[C@H](CCCCN)NC(=O)[C@H](CC(C)C)NC(=O)[C@H](CO)NC(=O)[C@H](CCCCN)NC(=O)[C@H](CC(C)C)NC(=O)[C@@H](N)Cc1ccccc1)C(N)=O [FLKSLKKLL]	58.7

Turning to the following compound.
# assay system Escherichia coli ATCC 25922: give MIC of CC[C@H](C)[C@H](NC(=O)[C@H](CC(N)=O)NC(=O)[C@@H](NC(=O)[C@H](C)N)[C@@H](C)O)C(=O)N1CCC[C@H]1C(=O)N[C@@H](Cc1ccccc1)C(=O)N[C@@H](CCCCN)C(=O)N[C@H](C(=O)N[C@@H](Cc1cnc[nH]1)C(=O)N[C@@H](Cc1ccccc1)C(=O)N[C@@H](CCCN=C(N)N)C(=O)N[C@H]1CSSC[C@@H](C(=O)O)NC(=O)[C@H](Cc2ccccc2)NC(=O)[C@H](C)NC(=O)[C@H](C)NC(=O)[C@H](CCCCN)NC1=O)C(C)C [ATNIPFKVHFRCKAAFC]
12

* * *

- Tested on: Staphylococcus aureus Newman
- test-name: ≥ marks a high value that may be exact or a test limit, other limits are often not marked, values filed in µg/mL are converted to µM
Examples of molecules with documented MIC follow.

Solved entries (count: 3):
molecule	MIC
CC[C@H](C)[C@H](N)C(=O)N[C@@H](CCCN=C(N)N)C(=O)N[C@@H](CCCN=C(N)N)C(=O)N[C@@H](CCC(N)=O)C(=O)NCC(=O)N[C@@H](CC(C)C)C(=O)N1CCC[C@H]1C(=O)N[C@@H](CCC(=O)O)C(=O)O [IRRQGLPE]	≥ 1250 µM
CC(C)C[C@H](NC(=O)[C@H](CC(C)C)NC(=O)[C@H](CC(N)=O)NC(=O)[C@H](CCC(=O)O)NC(=O)[C@H](CC(N)=O)NC(=O)[C@H](CC(C)C)NC(=O)[C@@H](N)C(C)C)C(=O)O [VLNENLL]	≥ 1250 µM
CC(C)C[C@H](NC(=O)[C@H](CC(N)=O)NC(=O)[C@H](CCC(=O)O)NC(=O)[C@H](CC(N)=O)NC(=O)[C@H](CC(C)C)NC(=O)[C@@H](N)C(C)C)C(=O)N[C@@H](CCCN=C(N)N)C(=O)N[C@@H](CCCN=C(N)N)C(=O)O [VLNENLRR]	≥ 1250 µM

Annotate the molecule CC[C@H](C)[C@H](N)C(=O)N[C@@H](Cc1cnc[nH]1)C(=O)N[C@@H](Cc1cnc[nH]1)C(=O)N[C@@H](CCC(N)=O)C(=O)NCC(=O)N[C@@H](CC(C)C)C(=O)N1CCC[C@H]1C(=O)N[C@@H](CCC(N)=O)C(=O)N[C@@H](CCC(=O)O)C(=O)O [IHHQGLPQE] with its measured MIC.
≥ 2500 µM

* * *

- System: Escherichia coli ATCC 25922
- test-name: ≥ marks a high value that may be exact or a test limit, other limits are often not marked, values filed in µg/mL are converted to µM
Entries and their MIC values follow.

Some entries whose results are on file:
CSCC[C@H](NC(=O)[C@H](CCCCN)NC(=O)[C@@H](NC(=O)[C@H](CCC(=O)O)NC(=O)[C@H](CCCCN)NC(=O)[C@H](CCCCN)NC(=O)[C@H](CCCCN)NC(=O)[C@H](CCCCN)NC(=O)[C@H](CC(C)C)NC(=O)[C@H](CCSC)NC(=O)[C@@H](N)CCC(=O)O)C(C)C)C(=O)N[C@@H](CCC(=O)O)C(=O)N[C@@H](CCCN=C(N)N)C(=O)N[C@@H](CCCCN)C(=O)N[C@H](C(=O)O)[C@@H](C)O > 105 µM
CC(=O)N[C@@H](CCCCN)C(=O)N[C@@H](CC(C)C)C(=O)N[C@@H](CC(C)C)C(=O)N[C@@H](CCCCN)C(=O)N[C@@H](CC(C)C)C(=O)N[C@@H](CC(C)C)C(=O)N[C@@H](CCCCN)C(=O)N[C@@H](CCCCN)C(=O)N[C@@H](CC(C)C)C(=O)N[C@@H](CC(C)C)C(=O)N[C@@H](CCCCN)C(=O)N[C@@H](CC(C)C)C(=O)N[C@@H](CC(C)C)C(=O)N[C@@H](CCCCN)C(N)=O 20 µM
CC[C@H](C)[C@H](NC(=O)[C@H](CCCCN)NC(=O)[C@H](CC(C)C)NC(=O)[C@H](CC(C)C)NC(=O)[C@@H]1CCCN1C(=O)CNC(=O)[C@H](CC(C)C)NC(=O)[C@H](CCCCN)NC(=O)CN)C(=O)N[C@@H](C)C(=O)N[C@@H](C)C(=O)N[C@@H](CCCCN)C(=O)N[C@H](C(=O)NCC(=O)N[C@@H](CO)C(=O)N[C@@H](CC(N)=O)C(=O)N[C@@H](CC(C)C)C(=O)N[C@@H](CC(C)C)C(N)=O)C(C)C 12.5 µM
CC(C)C[C@H](NC(=O)[C@H](CCCN=C(N)N)NC(=O)[C@H](Cc1c[nH]c2ccccc12)NC(=O)[C@H](CCCN=C(N)N)NC(=O)[C@@H](NC(=O)[C@H](CCCN=C(N)N)NC(=O)[C@H](Cc1c[nH]c2ccccc12)NC(=O)[C@H](CCCN=C(N)N)NC(=O)[C@H](CC(C)C)NC(=O)[C@H](CCCN=C(N)N)NC(=O)[C@@H](N)Cc1c[nH]c2ccccc12)[C@@H](C)O)C(=O)N[C@@H](CCCN=C(N)N)C(N)=O 4 µM

Pending compound:
Look up MIC of CC[C@H](C)[C@H](NC(=O)[C@H](CCCCN)NC(=O)[C@@H](NC(=O)[C@H](CCCN=C(N)N)NC(=O)[C@H](CCCN=C(N)N)NC(=O)[C@@H](N)CCCN=C(N)N)[C@@H](C)CC)C(=O)N[C@@H](CCCN=C(N)N)C(=O)N[C@@H](Cc1c[nH]c2ccccc12)C(=O)N[C@@H](Cc1ccc(O)cc1)C(N)=O and report it.
23 µM
